Test system: OV-CDH1
assayProcedure: Viral replication inhibition assay (HSV-1 genome copies by real-time PCR)
Type: cell-based
conditionSummary: Human alphaherpesvirus 1; Gli36 cells, MOI of 5, 48 h
valueType: IC50 (µM)
# number only, unit µM dropped from output

Which value of IC50 has been reported for `Nc1nc2c(ncn2COCCO)c(=O)[nH]1` in the records?
2.67

Source of measurements: patent US20230242887A1
